Reference source for all entries: patent EP4682166A1

TARGET_OR_TEST_SYSTEM: T1, human NMI (N-myc Interacting protein), recombinant protein (human, UniProt Q13287 1-307, limits assumed)
T1 construct: Gene ID: 9111; also called hNMI; antigen
T1 sequence (looked up): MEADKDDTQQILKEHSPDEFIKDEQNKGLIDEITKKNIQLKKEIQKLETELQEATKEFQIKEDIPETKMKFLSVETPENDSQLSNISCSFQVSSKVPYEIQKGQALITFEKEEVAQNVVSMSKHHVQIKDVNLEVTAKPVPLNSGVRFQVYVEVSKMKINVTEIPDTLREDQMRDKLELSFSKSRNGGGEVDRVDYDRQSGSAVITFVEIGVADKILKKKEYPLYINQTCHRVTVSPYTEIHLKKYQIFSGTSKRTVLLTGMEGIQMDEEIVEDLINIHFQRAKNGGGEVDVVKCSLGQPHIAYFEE
PROCEDURE_SUMMARY: ELISA, binding to hNMI
Each entry below carries its reported EC50.
Value expressed in nM; do not type the unit.

The following binders have reported results that may help.
- BINDER: "B-8-3 (antibody, V domains shown, also called B-8 Y33E (VH)) VH: QSLEESGGDLVKPGASLTLTCTASGFSFSSSYEMCWVRQAPGKGLEWIACIYAGSSGSTYYASWAKGRFTISKTSSTTVTLQMTSLTAADTATYFCAREYSYDDYGDFWGFNLWGPGTLVTVSS VL: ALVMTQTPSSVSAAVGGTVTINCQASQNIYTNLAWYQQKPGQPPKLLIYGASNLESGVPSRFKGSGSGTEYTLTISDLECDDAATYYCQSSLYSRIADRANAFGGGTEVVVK"
  EC50 / nM: 0.176
- BINDER: "monoclonal antibody B-8 (antibody, V domains shown, Rabbit monoclonal antibody; also called B8-1) VH: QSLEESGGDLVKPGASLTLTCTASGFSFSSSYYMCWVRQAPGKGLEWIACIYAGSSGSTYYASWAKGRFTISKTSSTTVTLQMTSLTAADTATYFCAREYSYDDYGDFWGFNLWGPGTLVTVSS VL: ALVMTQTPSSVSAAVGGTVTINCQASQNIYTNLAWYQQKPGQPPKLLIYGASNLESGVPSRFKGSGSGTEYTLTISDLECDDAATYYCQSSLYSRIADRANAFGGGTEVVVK"
  EC50 / nM: 0.309

stdin: Which EC50 is listed for B-8-5 (antibody, V domains shown, also called B-8 F111A (VH)) VH: QSLEESGGDLVKPGASLTLTCTASGFSFSSSYYMCWVRQAPGKGLEWIACIYAGSSGSTYYASWAKGRFTISKTSSTTVTLQMTSLTAADTATYFCAREYSYDDYGDFWGANLWGPGTLVTVSS VL: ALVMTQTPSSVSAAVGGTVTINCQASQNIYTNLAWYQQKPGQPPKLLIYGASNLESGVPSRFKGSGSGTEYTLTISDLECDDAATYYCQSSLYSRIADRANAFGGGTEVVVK ?
stdout: 0.238
